Origin of measurements: patent US9340538B2

# assayOverview: Test compounds' PK assay in ICR mice
# Type: in vivo
# details: mouse, plasma, iv, 2 mg/kg
metric: Cmax (ng/mL)
Output spec: scalar in ng/mL, unitless text.

Lab note: measured Cmax of CCOC(=O)C1=C(CN2CCOC(CCC(=O)O)C2)NC(c2nccs2)=NC1c1ccc(F)cc1Br (stereo not shown) was 3860

---

# assayOverview: Test compounds' PK assay in ICR mice
# Format: in vivo
# details: mouse, plasma, iv, 2 mg/kg, AUC in 0 hour to infinite time
metric: AUC(0-inf)

For record CCOC(=O)C1=C(CN2CCOC(CCC(=O)O)C2)NC(c2nccs2)=NC1c1ccc(F)cc1Br (stereo not shown) the listed AUC(0-inf) is 1640 ng·h/mL
